Assay: yeast display, Sf9 membrane polyspecificity reagent, FACS + sequencing; frameworks hold sequencing errors
measured_metric: polyreactivity (PSR sort gate)

QVQLVESGGGLVQAGGSLRLICAASGSIIHKNAMGWYRQAPGKERELVARITSSSGSTYYADSVKGRFTISRDNAKNTVYLQMNSLKPEDTAVYYFNAVYYHDVDFDYWGQGTQVTVSS high polyreactivity
QVQLVESGGGLVQAGGSLRLSCAASGSIFLYNAMGWYRQAPGKERELVADITSAGRTYYADSVKGRFTISRDNAKNTVYLQMNSLKPEDTAVYYCNKDYHYHFSWYGYWGQGTQVTVSS low polyreactivity
QVQLVESGGGLVQAGGSLRLSCAASGSILRTYTMGWYRQAPGKERELVAAISSSGGRTYYADSVKGRFTISRDNAKNTVYLQMNSLKPEDTAVYYCNAGGYRYRSYDYWGQGTQVTVSS high polyreactivity
QDQLVESGGGLLQAGGSLRLSCAASGFTFSIYAMGWYRQAPGKERELVAAISSSSSTNYADSVKVRFTISRDNAKNTVYLQMNSLKPEDTEVYYCNADNVGNTFTWYDYWGQGTQVTVSS low polyreactivity
QVQLVESGGGLVQAGGSLRLSCGASGRTFGHYDLGLYRQEPGTEREFVANIRQSTGSTDYADSVKGRFTISRDNAKITVYLQMNSLKPEDTEVYYCASPWYYYVEHRQGSYILDYWGQGTQVTVSS low polyreactivity
